PROCEDURE_SUMMARY: The half-life period was evaluated for the loss of 2 mol of phenol at the pH 7.5 in the presence of Tris buffer
Assay type: ADME
ATTRIBUTE_MEASURED: half-life (h)
Expressed in h, but write only the number.

Consider the molecule C[C@H](NP(=O)(Oc1ccc([N+](=O)[O-])cc1)Oc1ccc([N+](=O)[O-])cc1)C(=O)N1CCC[C@H]1C(=O)O and give its measured half-life. 29

* * *

PROCEDURE_SUMMARY: The half-life period was evaluated for the loss of 1 mol of phenol at the pH 7.5 in the presence of phosphate buffer
Type: ADME
Property: half-life; scope: individual molecules
Provide the reading as a plain figure in days.

For orientation, consider the following solved cases.
C[C@H](NP(=O)(Oc1ccccc1)Oc1ccccc1)C(=O)N1CCC[C@H]1C(=O)O = 24
C[C@H](NP(=O)(CCc1ccccc1)Oc1ccccc1)C(=O)N1CCC[C@H]1C(=O)O (stereo partly drawn) = 31

Any idea what its half-life is? The molecule is C[C@H](NP(=O)(Oc1ccc([N+](=O)[O-])cc1)Oc1ccc([N+](=O)[O-])cc1)C(=O)N1CCC[C@H]1C(=O)O 0.0833

* * *

Measured half-life of individual entries
PROCEDURE_SUMMARY: Inhibitory potency was evaluated against angiotensin converting enzyme at the pH 7.5 in the presence of Tris phosphate buffer, 300 mM in NaCl
Type: ADME
Kindly report the value followed by its unit.

C[C@H](NP(=O)(Oc1ccc([N+](=O)[O-])cc1)Oc1ccc([N+](=O)[O-])cc1)C(=O)N1CCC[C@H]1C(=O)O = 0.167 days

Now consider a different compound.
Recorded half-life of C[C@H](NP(=O)(CCc1ccccc1)Oc1ccccc1)C(=O)N1CCC[C@H]1C(=O)O (some centres not stated) , please. 38 days

* * *

TARGET_OR_TEST_SYSTEM: Angiotensin-converting enzyme (Oryctolagus cuniculus)
Sequence (P12822 whole entry): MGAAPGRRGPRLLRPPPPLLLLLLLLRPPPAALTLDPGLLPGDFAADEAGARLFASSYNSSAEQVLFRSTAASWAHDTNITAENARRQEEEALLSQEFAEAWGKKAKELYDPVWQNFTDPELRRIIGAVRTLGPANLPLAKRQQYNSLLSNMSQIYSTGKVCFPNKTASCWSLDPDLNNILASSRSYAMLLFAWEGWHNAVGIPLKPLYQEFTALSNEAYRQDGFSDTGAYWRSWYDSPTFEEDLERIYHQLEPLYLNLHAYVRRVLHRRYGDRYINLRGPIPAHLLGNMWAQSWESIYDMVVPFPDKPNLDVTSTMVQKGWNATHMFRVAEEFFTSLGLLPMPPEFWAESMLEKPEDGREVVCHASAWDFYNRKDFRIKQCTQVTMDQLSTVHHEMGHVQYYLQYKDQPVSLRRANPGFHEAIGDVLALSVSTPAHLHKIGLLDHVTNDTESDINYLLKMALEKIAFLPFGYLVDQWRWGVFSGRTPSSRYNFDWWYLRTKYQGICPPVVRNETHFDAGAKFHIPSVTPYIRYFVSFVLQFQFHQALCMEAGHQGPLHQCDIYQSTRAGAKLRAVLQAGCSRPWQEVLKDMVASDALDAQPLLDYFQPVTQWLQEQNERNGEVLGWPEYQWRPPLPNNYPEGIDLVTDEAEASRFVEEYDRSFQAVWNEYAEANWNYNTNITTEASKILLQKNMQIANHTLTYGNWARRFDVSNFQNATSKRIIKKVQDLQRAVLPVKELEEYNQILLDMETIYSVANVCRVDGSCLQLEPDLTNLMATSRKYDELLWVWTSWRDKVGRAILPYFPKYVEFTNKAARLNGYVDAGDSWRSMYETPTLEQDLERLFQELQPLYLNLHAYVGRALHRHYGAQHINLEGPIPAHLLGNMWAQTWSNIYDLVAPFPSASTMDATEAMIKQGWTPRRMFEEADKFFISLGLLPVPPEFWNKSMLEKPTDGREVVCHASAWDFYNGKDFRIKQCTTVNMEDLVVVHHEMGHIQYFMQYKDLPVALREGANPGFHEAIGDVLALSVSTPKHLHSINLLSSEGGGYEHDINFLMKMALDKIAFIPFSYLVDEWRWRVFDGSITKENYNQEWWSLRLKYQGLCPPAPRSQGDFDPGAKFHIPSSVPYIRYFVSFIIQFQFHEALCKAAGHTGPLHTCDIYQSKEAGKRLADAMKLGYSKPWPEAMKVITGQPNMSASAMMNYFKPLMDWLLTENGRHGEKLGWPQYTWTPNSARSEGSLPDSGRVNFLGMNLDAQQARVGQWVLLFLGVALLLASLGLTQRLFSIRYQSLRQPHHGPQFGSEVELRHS
PROCEDURE_SUMMARY: Inhibitory activity against Angiotensin I converting enzyme was evaluated
ATTRIBUTE_MEASURED: IC50 (nM)
// note: answer is a bare numeric in nM

Would you mind telling me what IC50 value was observed for C[C@H](NP(=O)(O)CCc1ccccc1)C(=O)N1CCC[C@H]1C(=O)O ? 7
